Data provenance is PubChem BioAssay AID1919007.

- System: A498 complex spheroids with HUVEC/MSC, growth
- Test description: Anticancer human tumor A498 cell line growth inhibition [AhR];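 further: luminescence signal used as a surrogate for viable cells; seven day exposure starting three days after spheroid seeding; luminescence viability scaled so 100% equals DMSO vehicle wells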
- Condition: second compound 3.16 µM; first compound 3 µM; hits give low values
Test readout: viability, T/C (%)

INSERT INTO measurements (compound, value_reported) VALUES
  ('O=C(C=Cn1cnc(-c2cc(C(F)(F)F)cc(C(F)(F)F)c2)n1)NNc1cnccn1 + CC(CO)NC(=O)c1cc(-c2ccc(Cl)cc2)nn(-c2cnn(C)c2)c1=O', 18.4),
  ('CCN(c1cc(-c2ccc(CN3CCOCC3)cc2)cc(C(=O)NCc2c(C)cc(C)[nH]c2=O)c1C)C1CCOCC1 + Cc1cncc(-c2nc(NCCc3c[nH]c4ccccc34)c3ncn(C(C)C)c3n2)c1', 39.5),
  ('O=C(C=Cn1cnc(-c2cc(C(F)(F)F)cc(C(F)(F)F)c2)n1)NNc1cnccn1 + Cc1cncc(-c2nc(NCCc3c[nH]c4ccccc34)c3ncn(C(C)C)c3n2)c1', 23.2),
  ('O=C(C=Cn1cnc(-c2cc(C(F)(F)F)cc(C(F)(F)F)c2)n1)NNc1cnccn1 + Cc1ccccc1N=Nc1ccc(NC(=O)c2ccnn2C)c(C)c1', 19.4),
  ('CCN(c1cc(-c2ccc(CN3CCOCC3)cc2)cc(C(=O)NCc2c(C)cc(C)[nH]c2=O)c1C)C1CCOCC1 + CC(CO)NC(=O)c1cc(-c2ccc(Cl)cc2)nn(-c2cnn(C)c2)c1=O', 102),
  ('CCN(c1cc(-c2ccc(CN3CCOCC3)cc2)cc(C(=O)NCc2c(C)cc(C)[nH]c2=O)c1C)C1CCOCC1 + Cc1ccccc1N=Nc1ccc(NC(=O)c2ccnn2C)c(C)c1', 86.3);
